Where a name gives a salt, the structure may show the parent alone.
The entries below are paired with their reported melting point.
The response must be a number in °C with no trailing unit.

CN(C)CC1CC2=C(O1)c1ccccc1Cc1ccccc12 (centres unmarked) (as salt: oxalate) = 172.8
CCNCC1CC2=C(O1)c1cc(F)ccc1Sc1ccccc12 (centres unmarked) (as salt: oxalate) = 240.7
CN(CC(=O)O)C[C@H]1CC2=C(O1)c1cc(F)ccc1Cc1ccccc12 = 194.7

# context switch: different molecule, same melting point
Quick one: melting point of CN(CC(=O)NS(C)(=O)=O)C[C@H]1CC2=C(O1)c1cc(F)ccc1Cc1ccccc12 ?
88.5

====

Target: human cloned 5-HT2A receptor (Homo sapiens, UniProt P28223)
Construct: expressed in transfected cells; host or cells: L929 cells
Sequence (P28223 whole entry): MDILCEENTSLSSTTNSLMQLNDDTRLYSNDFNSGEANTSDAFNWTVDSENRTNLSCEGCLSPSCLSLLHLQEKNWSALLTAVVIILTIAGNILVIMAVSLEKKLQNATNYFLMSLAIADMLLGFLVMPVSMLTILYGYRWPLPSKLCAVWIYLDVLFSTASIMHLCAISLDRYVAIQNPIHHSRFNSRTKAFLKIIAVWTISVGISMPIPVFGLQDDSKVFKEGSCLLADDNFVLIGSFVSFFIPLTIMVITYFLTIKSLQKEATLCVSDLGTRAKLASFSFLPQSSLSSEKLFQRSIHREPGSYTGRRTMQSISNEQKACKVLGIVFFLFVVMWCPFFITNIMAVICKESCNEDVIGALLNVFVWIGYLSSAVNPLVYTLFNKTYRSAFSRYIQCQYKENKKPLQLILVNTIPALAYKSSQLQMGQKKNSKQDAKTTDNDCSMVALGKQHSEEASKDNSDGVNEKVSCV
Test: In vitro binding affinity for 5-HT2A receptor (radioligand binding)
Details: human cloned 5-HT2A receptor, radioligand binding; read-out: h-5HT2A (converted)
Protocol: During the incubation, the radioligands bind to the receptor. When equilibrium of binding is reached, the receptor bound radioactivity is separated from the non-bound radioactivity, and the receptor bound activity is counted. The interaction of the test compounds with the receptors is assessed in competition binding experiments. Various concentrations of the test compound are added to the incubation mixture containing the tissue preparation and the radioligand. […]
metric: IC50 (nM)
# number only, unit nM dropped from output

CN(C)CC1CC2=C(O1)c1ccccc1Cc1ccccc12 (stereo not shown) [Compound 22] = 3.98
CNCC1CC2=C(O1)c1cc(F)ccc1C(C)c1ccccc12 (stereo not shown) [Compound 8] = 31.6
CN(C/C=C/C(=O)O)C[C@H]1CC2=C(O1)c1cc(F)ccc1Cc1ccccc12 [Compound 109] = 15.8
COc1ccc(C(=O)N2CCN(CC3CC4=C(O3)c3cc(F)ccc3Oc3ccccc34)CC2)cc1 (stereo not shown) [Compound 74] = 12.6
CN(C)CC1CC2=C(O1)c1ccccc1N(C)c1ccccc12 (stereo not shown) [Compound 29] = 316

IC50 lookup needed for OCCNCC1CC2=C(O1)c1cc(F)ccc1Cc1ccccc12 (stereo not shown) [Compound 19] , thanks.
1.58

Now try CN(C)C(=O)N1CCN(CC2CC3=C(O2)c2cc(F)ccc2Cc2ccccc23)CC1 (stereo not shown) [Compound 75] .
50.1

====

target: human cloned 5-HT2A receptor (Homo sapiens, UniProt P28223); construct: expressed in transfected cells; host or cells: L929 cells; assay: In vitro binding affinity for 5-HT2A receptor (radioligand binding); settings: h-5HT2A
metric: IC50 (nM)
Quick note: give the figure in nM, leave out the unit.

What IC50 value was documented for this compound, CN(C/C=C/c1ccccc1)C[C@H]1CC2=C(O1)c1cc(F)ccc1Cc1ccccc12 [Compound 110] ?
12.6

====

Each record here notes measured IC50.
target: NET (Rattus norvegicus, UniProt Q9WTR4); construct: Cortex from rat brain was collected and homogenised; from tissue; host or cells: rat brain cortex; test: In vitro determination of NET reuptake inhibition ([3H]Nixosetine binding, rat brain cortex); details: rat brain cortex, [3H]Nixosetine; read-out: NET Reuptake Inhibition (converted)
Sequence (Q9WTR4 1-597): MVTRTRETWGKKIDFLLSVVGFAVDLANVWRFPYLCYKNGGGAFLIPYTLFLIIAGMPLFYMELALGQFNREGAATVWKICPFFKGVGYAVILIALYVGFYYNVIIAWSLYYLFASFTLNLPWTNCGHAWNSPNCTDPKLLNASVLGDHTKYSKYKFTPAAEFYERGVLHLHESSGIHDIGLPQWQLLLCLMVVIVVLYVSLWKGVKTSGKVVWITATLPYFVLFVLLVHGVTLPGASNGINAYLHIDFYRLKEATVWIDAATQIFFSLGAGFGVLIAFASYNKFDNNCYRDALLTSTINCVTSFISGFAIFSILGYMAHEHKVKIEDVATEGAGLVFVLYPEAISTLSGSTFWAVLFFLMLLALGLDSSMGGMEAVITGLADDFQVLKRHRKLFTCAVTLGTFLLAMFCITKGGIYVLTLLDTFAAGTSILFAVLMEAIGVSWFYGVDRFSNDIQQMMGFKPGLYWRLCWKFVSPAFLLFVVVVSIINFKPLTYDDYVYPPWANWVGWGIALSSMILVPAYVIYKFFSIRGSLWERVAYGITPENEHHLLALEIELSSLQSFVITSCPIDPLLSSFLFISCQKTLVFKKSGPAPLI
Number only, in nM; omit the unit.

Previously resolved entries follow.
CCOC(=O)CN(C)C[C@H]1CC2=C(O1)c1cc(F)ccc1Cc1ccccc12 = 3980
CNCC1CC2=C(O1)c1ccccc1C(C)c1ccccc12 (stereo not drawn) [Compound 10] = 50.1

Which IC50 value belongs to CN(C)CC1CC2=C(O1)c1ccccc1N(C)c1ccccc12 (stereo not drawn) ?
79.4

Lookup COC(=O)CC(=O)N1CCN(CC2CC3=C(O2)c2cc(F)ccc2Oc2ccccc23)CC1 (stereo not drawn)
1580

Now consider CNC[C@@H]1CC2=C(O1)c1cc(F)ccc1Cc1ccccc12 .
10

Then CNC[C@H]1CC2=C(O1)c1cc(F)ccc1Cc1ccccc12 ?
15.8

====

Reported IC50 values for the following compounds.
molecular target: human Dopamine D2L receptor (Homo sapiens, UniProt P14416); construct: expressed in transfected cells; host or cells: CHO cells; assay: In vitro binding affinity for human D2L receptor ([3H]Spiperone); conditions: human D2L receptor-transfected CHO cell membranes, [3H]Spiperone; read-out: h-D2L (converted)
Sequence (P14416 whole entry): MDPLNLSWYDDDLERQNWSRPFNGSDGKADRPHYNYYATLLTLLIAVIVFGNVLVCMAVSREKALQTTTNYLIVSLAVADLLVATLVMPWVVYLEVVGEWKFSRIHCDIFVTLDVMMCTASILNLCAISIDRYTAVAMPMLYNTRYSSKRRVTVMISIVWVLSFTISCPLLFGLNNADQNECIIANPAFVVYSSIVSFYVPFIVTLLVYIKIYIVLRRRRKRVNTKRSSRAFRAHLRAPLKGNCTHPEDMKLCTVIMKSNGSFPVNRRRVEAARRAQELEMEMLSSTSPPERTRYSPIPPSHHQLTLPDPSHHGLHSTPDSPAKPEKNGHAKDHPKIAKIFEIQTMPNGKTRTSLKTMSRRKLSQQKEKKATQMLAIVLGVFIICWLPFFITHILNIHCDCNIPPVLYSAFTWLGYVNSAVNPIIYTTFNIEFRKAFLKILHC
# output: bare number, implied unit µM

Use the examples below as a reference point.
COc1ccc(C(=O)N2CCN(CC3CC4=C(O3)c3cc(F)ccc3Oc3ccccc34)CC2)cc1 (stereo not shown) = 0.251
CCOC(=O)N1CCN(CC2CC3=C(O2)c2cc(F)ccc2Oc2ccccc23)CC1 (stereo not shown) = 0.631
CN(CC(N)=O)C[C@H]1CC2=C(O1)c1cc(F)ccc1Cc1ccccc12 = 1.26

Okay, now this compound:
Given CNCC1CC2=C(O1)c1cc(Br)ccc1Cc1ccccc12 (stereo not shown) , state its recorded IC50.
0.0316

====

molecular target: human cloned 5-HT2C receptor (Homo sapiens); construct: expressed in transfected cells; host or cells: CHO cells; assay: In vitro binding affinity for 5-HT2C receptor (radioligand binding); details: h-5HT2C, human cloned 5-HT2C receptor, radioligand binding
Sequence (P28335 33-458): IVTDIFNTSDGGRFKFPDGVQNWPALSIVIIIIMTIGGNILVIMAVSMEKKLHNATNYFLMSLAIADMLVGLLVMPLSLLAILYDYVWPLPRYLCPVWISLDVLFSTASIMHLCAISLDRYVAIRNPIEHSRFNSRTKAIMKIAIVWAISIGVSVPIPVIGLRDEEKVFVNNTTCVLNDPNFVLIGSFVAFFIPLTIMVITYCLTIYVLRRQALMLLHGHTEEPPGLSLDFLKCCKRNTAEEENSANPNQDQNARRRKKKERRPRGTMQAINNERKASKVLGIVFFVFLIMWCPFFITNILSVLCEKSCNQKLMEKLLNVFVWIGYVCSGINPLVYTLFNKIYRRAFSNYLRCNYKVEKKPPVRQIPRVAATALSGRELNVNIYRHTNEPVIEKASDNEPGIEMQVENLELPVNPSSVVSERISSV
metric: IC50 (nM)
Give just the number in nM; leave the unit off.

O=C(Oc1ccccc1)N1CCN(CC2CC3=C(O2)c2cc(F)ccc2Oc2ccccc23)CC1 (centres unmarked) = 316
COc1ccc(OC(=O)N2CCN(CC3CC4=C(O3)c3cc(F)ccc3Cc3ccccc34)CC2)cc1 (centres unmarked) = 50.1
O=C(Oc1ccccc1)N1CCN(CC2CC3=C(O2)c2cc(F)ccc2Cc2ccccc23)CC1 (centres unmarked) = 126
COc1ccc(OC(=O)N2CCN(CC3CC4=C(O3)c3cc(F)ccc3Oc3ccccc34)CC2)cc1 (centres unmarked) = 251

Now look at this entry.
So what does the record say about IC50 for CN(C[C@H]1CC2=C(O1)c1cc(F)ccc1Cc1ccccc12)C(=O)Oc1ccccc1 ?
3.98

====

Biological target: human cloned 5-HT2A receptor (Homo sapiens, UniProt P28223)
Construct: expressed in transfected cells; host or cells: L929 cells
Assay: In vitro binding affinity for 5-HT2A receptor (radioligand binding)
Settings: human cloned 5-HT2A receptor, radioligand binding; read-out: h-5HT2A (converted)
Method: During the incubation, the radioligands bind to the receptor. When equilibrium of binding is reached, the receptor bound radioactivity is separated from the non-bound radioactivity, and the receptor bound activity is counted. The interaction of the test compounds with the receptors is assessed in competition binding experiments. Various concentrations of the test compound are added to the incubation mixture containing the tissue preparation and the radioligand. […]
Mark true (1) only for IC50 values smaller than 30 nM; exact matches and larger values are false (0).

Reference set (10 entries):
NCC1CC2=C(O1)c1cc(F)ccc1Cc1ccccc12 (stereo not drawn) = true (1)
O=C(NCc1ccccc1)N1CCN(CC2CC3=C(O2)c2cc(F)ccc2Cc2ccccc23)CC1 (stereo not drawn) = false (0)
CCS(=O)(=O)N1CCN(CC2CC3=C(O2)c2cc(F)ccc2Oc2ccccc23)CC1 (stereo not drawn) = false (0)
O=S(=O)(c1ccccc1)N1CCN(CC2CC3=C(O2)c2cc(F)ccc2Cc2ccccc23)CC1 (stereo not drawn) = false (0)
CNCC1CC2=C(O1)c1c(F)cccc1Cc1ccccc12 (stereo not drawn) = true (1)
C=CCn1c2c(c3ccccc31)C1=C(CC(CNC)O1)c1ccccc1S2 (stereo not drawn) = true (1)
CN(C)CC1CC2=C(O1)c1cc(Br)ccc1Oc1ccccc12 (stereo not drawn) = true (1)
CCCn1c2c(c3ccccc31)C1=C(CC(CNC)O1)c1ccccc1S2 (stereo not drawn) = true (1)
O=C(c1ccccc1)N1CCN(CC2CC3=C(O2)c2cc(F)ccc2Cc2ccccc23)CC1 (stereo not drawn) = true (1)
CNC(=N)CN(C)CC1CC2=C(O1)c1cc(F)ccc1Cc1ccccc12 (stereo not drawn) = true (1)

Consider OCCN1CCN(CC2CC3=C(O2)c2cc(F)ccc2Sc2ccccc23)CC1 (stereo not drawn) . Does its IC50 lie strictly below 30 nM?
true (1)

Also need O=C(OCc1ccccc1)N1CCN(CC2CC3=C(O2)c2cc(F)ccc2Cc2ccccc23)CC1 (stereo not drawn) , thanks.
false (0)

Could you do the same for CCCCc1ccc2c(c1)C1=C(CC(CNC)O1)c1ccccc1C2 (stereo not drawn) , please?
false (0)

Repeat with CNC(=O)CN(C)C[C@H]1CC2=C(O1)c1cc(F)ccc1Cc1ccccc12
true (1)

Okay, and O=C(C1CC1)N1CCN(CC2CC3=C(O2)c2cc(F)ccc2Cc2ccccc23)CC1 (stereo not drawn) ?
true (1)

O=S(=O)(Cc1ccccc1)N1CCN(CC2CC3=C(O2)c2cc(F)ccc2Cc2ccccc23)CC1 (stereo not drawn) , same question.
false (0)

Now this one: CCCC(=O)N1CCN(CC2CC3=C(O2)c2cc(F)ccc2Oc2ccccc23)CC1 (stereo not drawn)
false (0)

Here is the next compound: CS(=O)(=O)N1CCN(CC2CC3=C(O2)c2cc(F)ccc2Oc2ccccc23)CC1 (stereo not drawn)
false (0)

====

target: human cloned 5-HT2A receptor (Homo sapiens); construct: expressed in transfected cells; host or cells: L929 cells; experiment: In vitro binding affinity for 5-HT2A receptor (radioligand binding); details: human cloned 5-HT2A receptor, radioligand binding; read-out: h-5HT2A (converted)
metric: IC50
Dear colleague, please send the value followed by its unit.

// worked examples, IC50 included
O=C(c1ccccc1)N1CCN(CC2CC3=C(O2)c2cc(F)ccc2Oc2ccccc23)CC1 (stereo not shown) = 25.1 nM
CCOC(=O)N1CCN(CC2CC3=C(O2)c2cc(F)ccc2Cc2ccccc23)CC1 (stereo not shown) = 10 nM
CNC[C@@H]1CC2=C(O1)c1ccccc1[C@@H](C)c1ccccc12 (racemic) = 100 nM

Please examine the following record next.
State the recorded IC50 for this entry: O=C(Nc1ccccc1)N1CCN(CC2CC3=C(O2)c2cc(F)ccc2Oc2ccccc23)CC1 (stereo not shown)
31.6 nM
